target.system: EGFR kinase (Homo sapiens, UniProt P00533)
Sequence (P00533 25-1210): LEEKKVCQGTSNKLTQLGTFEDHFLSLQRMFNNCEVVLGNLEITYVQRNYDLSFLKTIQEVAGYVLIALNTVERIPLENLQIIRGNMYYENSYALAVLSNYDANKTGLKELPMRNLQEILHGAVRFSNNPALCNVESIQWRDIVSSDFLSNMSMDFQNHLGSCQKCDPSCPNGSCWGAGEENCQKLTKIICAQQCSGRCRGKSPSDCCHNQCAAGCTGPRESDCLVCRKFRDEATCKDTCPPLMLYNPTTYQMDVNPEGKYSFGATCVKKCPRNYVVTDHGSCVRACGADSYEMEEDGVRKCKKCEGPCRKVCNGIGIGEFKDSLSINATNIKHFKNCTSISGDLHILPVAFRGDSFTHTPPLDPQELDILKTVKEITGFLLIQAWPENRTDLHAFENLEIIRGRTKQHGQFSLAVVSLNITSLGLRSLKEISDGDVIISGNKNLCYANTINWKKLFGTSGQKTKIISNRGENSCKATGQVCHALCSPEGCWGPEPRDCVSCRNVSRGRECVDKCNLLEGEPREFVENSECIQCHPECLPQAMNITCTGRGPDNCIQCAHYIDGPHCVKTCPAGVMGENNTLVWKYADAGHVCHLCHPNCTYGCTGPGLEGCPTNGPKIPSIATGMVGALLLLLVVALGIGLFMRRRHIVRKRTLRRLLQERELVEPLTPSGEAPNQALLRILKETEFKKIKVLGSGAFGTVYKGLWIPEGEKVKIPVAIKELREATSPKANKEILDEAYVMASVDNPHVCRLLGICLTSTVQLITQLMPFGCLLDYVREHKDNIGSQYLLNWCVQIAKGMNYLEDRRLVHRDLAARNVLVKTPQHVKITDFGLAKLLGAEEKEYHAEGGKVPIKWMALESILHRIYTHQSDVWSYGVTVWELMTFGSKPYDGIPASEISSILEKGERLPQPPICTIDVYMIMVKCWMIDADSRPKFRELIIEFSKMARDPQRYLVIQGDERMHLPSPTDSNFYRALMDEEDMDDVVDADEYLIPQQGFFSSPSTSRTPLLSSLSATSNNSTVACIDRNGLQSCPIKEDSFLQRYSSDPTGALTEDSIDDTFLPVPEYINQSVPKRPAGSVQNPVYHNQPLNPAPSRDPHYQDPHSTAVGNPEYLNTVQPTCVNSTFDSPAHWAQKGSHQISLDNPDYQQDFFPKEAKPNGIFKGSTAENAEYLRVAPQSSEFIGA
test.name: Enzymatic experiment on EGFR (HTRF kinEASE-TK)
Type: biochemical
measurement.context: ATP 1.65 μM; read-out: Kinase IC50 (nM) in vitro EGFR
endpoint: IC50 (nM)

Cc1cc(Nc2ncnc3ccc(NC4=NC5(CCCC5)CO4)cc23)ccc1Oc1cc2nncn2cn1    6.5
Cc1cc(Nc2ncnc3ccc(NC4=NCC5(CCNCC5)O4)cc23)ccc1Oc1cc2nncn2cn1    17.7
C=CC(=O)Nc1cncc(-c2ccc3ncnc(Nc4ccc(Oc5cc6nncn6cn5)c(C)c4)c3c2)c1    21.6
CC1(C)COC(Nc2ccc3ncnc(Nc4ccc(Oc5cc6nncn6cn5)c(C(F)(F)F)c4)c3c2)=N1    51.9
COCC(=O)NC/C=C/c1ccc2ncnc(Nc3ccc(Oc4cc5nncn5cn4)c(C)c3)c2c1    115
Cc1cc(Nc2ncnc3ccc(NC(=O)/C=C/[C@H]4CCCN4C)cc23)ccc1Oc1cc2nncn2cn1    3.16
C=C(F)C(=O)N1CCC(Oc2cc3c(Nc4ccc(Oc5cc6nncn6cn5)c(C)c4)ncnc3cc2OC)CC1    8.3
C=CC(=O)N1CCC=C(c2ccc3ncnc(Nc4ccc(Oc5cc6nncn6cn5)c(C)c4)c3c2)C1    7.41

P = Cc1cc(Nc2ncnc3ccc(-c4ccc(CNCCS(C)(=O)=O)s4)cc23)ccc1Oc1cc2nncn2cn1
Q = C=CC(=O)Nc1cccc(-c2ccc3ncnc(Nc4ccc(Oc5cc6nncn6cn5)c(C)c4)c3c2)c1
R = C=CC(=O)Nc1ccc(-c2ccc3ncnc(Nc4ccc(Oc5cc6nncn6cn5)c(C)c4)c3c2)c(C)n1
S = C=C(C)C(=O)Nc1ccc2ncnc(Nc3ccc(Oc4cc5nncn5cn4)c(C)c3)c2c1
T = Cc1cc(Nc2ncnc3ccc(-c4ccc(CNCCS(N)(=O)=O)o4)cc23)ccc1Oc1cc2nncn2cn1
Q: List from greatest to least IC50. Output spec: labels arranged per the requested ranking.
Ans: R, S, Q, P, T

###

target.system: ErbB2 kinase (Homo sapiens)
test.name: Enzymatic experiment on ErbB2 (HTRF kinEASE-TK)
Type: biochemical
measurement.context: ATP 4 μM; read-out: Kinase IC50 (nM) in vitro ErbB2
endpoint: IC50 (nM)

Observe how each entry below is paired with its result.
Cc1cc(Nc2ncnc3ccc(NC4=NC5(CO4)CN(C)C5)cc23)ccc1Oc1cc2nncn2cn1 [Embodiment 30]    4.9
Cc1cc(Nc2ncnc3ccc(NC4=NC(C)(C)CO4)cc23)ccc1Oc1cc2nncn2cn1 [Embodiment 4]    2.4
Cc1cc(Nc2ncnc3ccc(-c4cc[nH]c4)cc23)ccc1Oc1cc2nncn2cn1 [Embodiment 80]    1
Cc1cc(Nc2ncnc3ccc(-c4ccc(CNCCS(C)(=O)=O)s4)cc23)ccc1Oc1cc2nncn2cn1 [Embodiment 79]    1.7
Cc1cc(Nc2ncnc3ccc(NC(=O)CCl)cc23)ccc1Oc1cc2nncn2cn1 [Embodiment 82]    1.1
Cc1cc(Nc2ncnc3ccc(-c4cccc(NC(=O)/C=C/c5cccnc5)c4)cc23)ccc1Oc1cc2nncn2cn1 [Embodiment 51]    8.41

I = C=CC(=O)Nc1ccc(-c2ccc3ncnc(Nc4ccc(Oc5cc6nncn6cn5)c(C)c4)c3c2)cn1 [Embodiment 54]
II = Cc1cc(Nc2ncnc3ccc(NC4=NC5(CCCC5)CO4)cc23)ccc1Oc1cc2nncn2cn1 [Embodiment 87]
Q: Lower value for measured IC50? Options: I , II # reply format: chosen label
Ans: II
(II: 1.9 nM, I: 6.4 nM)

###

target.system: ErbB2 kinase (Homo sapiens)
test.name: Enzymatic experiment on ErbB2 (HTRF kinEASE-TK)
Assay type: biochemical
measurement.context: ATP 4 μM; read-out: Kinase IC50 (nM) in vitro ErbB2
endpoint: IC50 (nM)

I = Cc1cc(Nc2ncnc3ccc(NC(=O)Nc4cc(C)n(C(=O)OC(C)(C)C)n4)cc23)ccc1Oc1cc2nncn2cn1 [Embodiment 69]
II = Cc1cc(Nc2ncnc3ccc(NC(=O)/C=C/CN(C)C)cc23)ccc1Oc1cc2nncn2cn1 [Embodiment 57]
Q: Lab note: check whether I or II shows the higher recorded IC50. Refer to your chosen item by its label in the answer.
Ans: I
(I: 7 nM, II: 1.7 nM)

###

target.system: ErbB2 kinase (Homo sapiens)
test.name: Enzymatic experiment on ErbB2 (HTRF kinEASE-TK)
Type: biochemical
measurement.context: ATP 4 μM; read-out: Kinase IC50 (nM) in vitro ErbB2
endpoint: IC50 (nM)

1 = Cc1cc(Nc2ncnc3ccc(NC(=O)N4CCN(C)CC4)cc23)ccc1Oc1cc2nncn2cn1
2 = Cc1cc(Nc2ncnc3ccc(NC(=O)/C=C/[C@@H]4CCCN4C)cc23)ccc1Oc1cc2nncn2cn1
3 = C=CC(=O)Nc1cccc(-c2ccc3ncnc(Nc4ccc(Oc5cc6nncn6cn5)c(C)c4)c3c2)c1
4 = C=CC(=O)N1CCC2(CC1)CN=C(Nc1ccc3ncnc(Nc4ccc(Oc5cc6nncn6cn5)c(C)c4)c3c1)O2
5 = Cc1cc(Nc2ncnc3ccc(-c4ccco4)cc23)ccc1Oc1cc2nncn2cn1
Q: List the 5 compounds shown above, ordered by increasing IC50. Put the labels in the requested order and write them down.
Ans: 3, 5, 2, 1, 4
(3: 1.34 nM, 5: 2.2 nM, 2: 4.84 nM, 1: 12.6 nM, 4: 24.5 nM)

a = C=C(F)C(=O)Nc1ccc2ncnc(Nc3ccc(Oc4cc5nncn5cn4)c(C)c3)c2c1
b = Cc1cc(Nc2ncnc3ccc(NC(=O)C4CC(Br)=NO4)cc23)ccc1Oc1cc2nncn2cn1 (stereo not shown)
Q: Could you tell me which of these two has the smaller IC50 figure? First: a Second: b Kindly give the label for the entry you pick.
Ans: a

1 = C=C(F)C(=O)Nc1cccc(-c2ccc3ncnc(Nc4ccc(Oc5cc6nncn6cn5)c(C)c4)c3c2)c1
2 = Cc1cc(Nc2ncnc3ccc(-c4ccc(CNCCS(C)(=O)=O)o4)cc23)ccc1Oc1cc2nncn2cn1
3 = Cc1cc(Nc2ncnc3ccc(NC(=O)N4CCOCC4)cc23)ccc1Oc1cc2nncn2cn1
Q: Would you mind ranking these compounds by ascending IC50? Output the labels ranked as instructed.
Ans: 2, 1, 3

###

target.system: ErbB2 kinase (Homo sapiens, UniProt P04626)
Sequence (P04626 23-1255): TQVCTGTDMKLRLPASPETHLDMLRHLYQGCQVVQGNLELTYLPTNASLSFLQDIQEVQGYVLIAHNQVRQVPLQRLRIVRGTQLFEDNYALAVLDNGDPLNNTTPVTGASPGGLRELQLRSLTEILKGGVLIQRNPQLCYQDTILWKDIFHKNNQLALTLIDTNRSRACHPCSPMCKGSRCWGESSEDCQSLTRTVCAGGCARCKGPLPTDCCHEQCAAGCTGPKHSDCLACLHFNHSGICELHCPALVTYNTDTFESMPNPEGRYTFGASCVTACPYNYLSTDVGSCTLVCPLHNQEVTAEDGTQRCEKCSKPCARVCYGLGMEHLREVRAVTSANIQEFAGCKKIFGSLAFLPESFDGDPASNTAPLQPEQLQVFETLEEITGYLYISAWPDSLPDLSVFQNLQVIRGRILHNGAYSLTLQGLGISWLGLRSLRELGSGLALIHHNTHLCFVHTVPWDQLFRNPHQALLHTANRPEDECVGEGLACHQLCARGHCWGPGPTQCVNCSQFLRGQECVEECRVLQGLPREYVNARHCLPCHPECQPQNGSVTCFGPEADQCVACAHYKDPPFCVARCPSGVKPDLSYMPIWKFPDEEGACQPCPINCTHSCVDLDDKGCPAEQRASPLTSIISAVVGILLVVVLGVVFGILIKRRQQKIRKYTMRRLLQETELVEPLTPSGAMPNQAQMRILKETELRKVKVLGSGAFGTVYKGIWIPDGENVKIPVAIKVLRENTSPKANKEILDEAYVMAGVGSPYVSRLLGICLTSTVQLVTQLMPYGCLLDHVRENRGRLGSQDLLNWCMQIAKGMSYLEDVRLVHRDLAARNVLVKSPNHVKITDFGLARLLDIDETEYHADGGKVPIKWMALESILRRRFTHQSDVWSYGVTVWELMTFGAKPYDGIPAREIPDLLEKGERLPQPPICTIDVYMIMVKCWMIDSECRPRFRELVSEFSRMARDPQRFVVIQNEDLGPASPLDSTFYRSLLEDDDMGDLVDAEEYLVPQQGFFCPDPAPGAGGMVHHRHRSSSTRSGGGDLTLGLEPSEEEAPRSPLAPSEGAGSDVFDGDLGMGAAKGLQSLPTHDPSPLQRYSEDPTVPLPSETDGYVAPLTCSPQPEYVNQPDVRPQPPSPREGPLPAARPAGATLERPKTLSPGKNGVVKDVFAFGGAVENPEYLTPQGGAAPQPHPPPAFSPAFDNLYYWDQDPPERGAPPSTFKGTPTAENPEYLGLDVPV
test.name: Enzymatic experiment on ErbB2 (HTRF kinEASE-TK)
Format: biochemical
measurement.context: ATP 4 μM; read-out: Kinase IC50 (nM) in vitro ErbB2
Method: Enzymatic Experiment on EGFR/ErbB2 Firstly, preparing 1× reaction buffer required for the kinase, 5× Enzymatic buffer (HEPES 20 mM pH7.0, NaN3 0.1%, BSA 0.05%, sodium orthovanadate 0.5 mM) in the HTRF kinEASE-TK kit was diluted to 1 time with deionized water, 50 nM Supplement Enzymatic buffer (SEB reagent), 1 mM MnCl2, 5 mM MgCl2 and 1 mM DTT were added. […]
endpoint: IC50 (nM)

Cc1cc(Nc2ncnc3ccc(NC(=S)NC(C)(CO)CO)cc23)ccc1Oc1cc2nncn2cn1    4.3

A = COCC(=O)NC/C=C/c1ccc2ncnc(Nc3ccc(Oc4cc5nncn5cn4)c(C)c3)c2c1
B = Cc1cc(Nc2ncnc3ccc(NC(=O)Nc4cc(C)n(C)n4)cc23)ccc1Oc1cc2nncn2cn1
Q: Quick one: lower IC50, A or B ? Pick one; state its label.
Ans: A

This collection of values is drawn from patent US10828305B2.
